Target: T1, human PD-L1, his tagged (hPD-L1-his) (human, UniProt Q9NZQ7 19-238, limits assumed)
T1 construct: also called huPD-L1-His; recombinant human PD-L1; not shown: his tag
T1 sequence (Q9NZQ7 19-238 limits assumed): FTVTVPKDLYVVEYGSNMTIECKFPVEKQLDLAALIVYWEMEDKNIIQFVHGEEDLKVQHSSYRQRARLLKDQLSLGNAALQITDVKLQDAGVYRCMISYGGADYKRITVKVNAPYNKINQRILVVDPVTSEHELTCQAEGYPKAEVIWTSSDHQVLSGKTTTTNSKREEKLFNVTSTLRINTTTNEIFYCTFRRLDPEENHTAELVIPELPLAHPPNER
Assay: BLI (ForteBio Octet), hPD-L1-his
pKd: −log10 of the molar value.
parameter.measured: pKd

INSERT INTO results (binder, assay_value) VALUES
  ('769-hIgG1 (chimeric PAL769) (antibody, V domains shown) VH: EVQLQESGAELVKPGASVTLSCTASGFNIKDTYMHWVKQRPEQGLEWIGRIDPANDNTKYDPKFQDKATITADTSSDTAYLRLSSLTSEDTAVYYCAREGYGGSYGEGYWGQGTTLTVSS VL: SIVMTQTPKFLLVSAGDRVTITCKASQSVSNDVIWYQQKPGQSPKLLIYYASIRFTGVPDRFAGSGYGTDFTFTINTVQAEDLAVYFCQQDYNSPWTFGGGTKLEIK', 8.59);
